- System: UACC-257 melanoma
- measurement-notes: NCI-60 one-dose screen, 48 h (100 = growth as untreated, 0 = no growth, -100 = all killed)
- protocol-conditions: 10 µM unless noted
- Protocol: Cells are grown in 96 well plates and exposed to the test compound for 48 hours. Compounds are tested at a single concentration, which is 10^-5 M for most compounds. The reported endpoint is percent growth (GI% or GIPRCNT), where numbers from 0 - 100% represent growth inhibition, and numbers from -100% - 0 represent cell death. For example, a value of 40 represents 60% growth inhibition. A value of 0 means no net growth occurred over the course of the experiment. […]
The panel holds about 83,000 compounds, 20% with a hit somewhere; the sample as a whole holds those more often.
Items are presented alongside their recorded growth.
Answer format: numeric, % implied, no suffix.

Take a look at these entries with their results.
{"columns": ["molecule", "readout-unit", "growth"],
 "data": [
  ["CN1CCN(C(=O)Oc2cc3c(c4ccccc24)[C@H](CCl)CN3C(=O)c2cc3cc(OCCCN4CCC4)ccc3[nH]2)[C@@H]2CSSC[C@H]21", "%", -21],
  ["COc1sc(/C=N/NC(=O)c2[nH]c3ccc(Br)cc3c2-c2ccccc2)cc1Cl", "%", 29],
  ["CC(C)(C)OC(=O)N1CCC2(CC1)Oc1ccccc1[C@H]1CC(c3ccc(Br)cc3)=NN12", "%", 99.3]
]}

Q: State the recorded growth for this entry: O=C(NNC(=S)NCCc1ccccc1)c1ccc(OCc2nc3ccc(Cl)cc3[nH]2)cc1
A: 79.9

Q: Could you share which growth value was measured for O=C(c1ccc(Cl)cc1)C1[C@H](c2ccccc2Cl)[C@@H](c2ccccc2)NC12C(=O)Nc1ccc(Br)cc12 (some centres undefined) ?
A: -30.7

Q: Consider the molecule COc1ccc2[nH]c(=O)c(CSc3ccccc3Nc3nccc(-c4ccc(C(F)(F)F)cc4)n3)cc2c1 and give its measured growth.
A: 50.3

Q: Using the record for COc1cccc(NC(=O)c2ccc(NC(=O)CCl)s2)c1 , report its growth.
A: 27.7

Q: Given the molecule O=C(Nc1ccc(S(=O)(=O)N2CCCCC2)cc1)C(Cl)Cl , what is its reported growth?
A: 101

Q: Sample O=C(N/N=C/c1ccc(B(O)O)s1)c1[nH]c2ccc(Br)cc2c1-c1ccccc1 — what was its growth?
A: -77.4

----------
- Tested on: EKVX NSCLC
- measurement-notes: NCI-60 one-dose screen, 48 h
- protocol-conditions: 10 µM unless noted
About 83,000 compounds went through this panel and 20% of them were active in at least one assay; those are over-represented in the sample as a whole. Calls of active or inactive are those of the source. Rule for the calls: active = growth percent below 10; inactive = the rest.
Result category, one only: class 1 = active, class 0 = inactive

Example entries begin here.
{"columns": ["compound", "label"],
 "data": [
  ["O=C1CC(c2ccc(I)cc2)OC2C=Cc3ccccc3C12 (centres undefined)", "class 0"],
  ["COc1ccc(-c2nc3ccc(-c4nnc(SCC(=O)Nc5ccc(/C(C)=N\\O)cc5)o4)cc3[nH]2)cc1", "class 0"]
]}

Kindly review the next compound as well.
Q: # fetch the recorded call for O=C(N/N=C/c1ccc(-c2cccc([N+](=O)[O-])c2)s1)c1[nH]c2ccc(Br)cc2c1-c1ccccc1 here
A: class 0

----------
Quick reference: growth of the listed items.
- Test system: NCI-H226 lung
- measurement-notes: NCI-60 one-dose screen, 48 h (100 = growth as untreated, 0 = no growth, -100 = all killed)
- protocol-conditions: 10 µM unless noted
This is part of a sample that, as a whole, favours compounds with a hit. Of some 83,000 tested, about 20% had one in any assay.
Your answer should be a plain number; it is taken to be in %.

Q: Using the record for COc1ccc(SC2c3cc(OC)ccc3Oc3nc(N)c(C#N)c(N)c32)cc1 (stereo not drawn) , report its growth.
A: 87.1

Q: May I ask what growth has been recorded for O=C(CSc1nc2c(c(=O)[nH]1)CCCC2)Nc1ccccc1C(=O)O ?
A: 101

Q: growth lookup needed for CN(CCSSCCN1CCOCC1)C(=O)Oc1cc2c(c3ccccc13)[C@H](CCl)CN2C(=O)c1cc2cc(OCCCN3CCC3)ccc2[nH]1 , thanks.
A: -11.7

----------
- System: MOLT-4 leukemia
- measurement-notes: NCI-60 one-dose screen, 48 h
- protocol-conditions: 10 µM unless noted
Compounds without any hit were thinned out: in the full panel of roughly 83,000, 20% have a hit. Active and inactive are the calls of the source. Rule for the calls: active = growth percent below 10; inactive = the rest.
API: response.call in active, inactive

{"columns": ["compound", "label"],
 "data": [
  ["CN(C)C(=O)c1cc(-c2ccc3ncnc(N4CCc5cc(F)c(Cl)cc54)c3c2)cnc1N", "active"],
  ["Cc1nc2sccn2c1-c1nnc(SCc2ccccc2)o1", "inactive"],
  ["Nc1cc2ccccc2c(=O)n1NC(=O)c1ccccc1", "inactive"]
]}

Q: Assay outcome for Fc1cccc(CNc2nc(SCCN3CCOCC3)nc3c2cnn3CC(Cl)c2ccc(Br)cc2)c1 (centres undefined) : what was it?
A: active

Q: Each compound tested received a call. Report the one for Cc1[nH]nc2ccc3nc(-c4cn[nH]c4C(F)(F)F)c4c(c3c12)CCCC4 .
A: active

Q: Which result was noted for this compound in the test: Cc1ccc(N=Nc2c(N)nn3c(-c4cc5cc(Br)ccc5oc4=O)ccnc23)cc1
A: inactive

Q: Returns: the outcome recorded for COc1c(B(O)O)cc(F)cc1-c1nc2ccc3[nH]ncc3c2c2c1COCC2 in this assay.
A: inactive

Q: Answer briefly: the call reported for COc1sc(/C=N/NC(=O)c2[nH]c3ccc(Br)cc3c2-c2ccccc2)cc1Cl in this assay.
A: active

Q: Please let me know the test result on file for COc1ccc(N=Nc2c(N)nn3c(-c4cc5ccccc5oc4=O)ccnc23)cc1 .
A: inactive

Q: Hey, what did the test say about CC[C@]12C=CCN3CC[C@]4(C(=C(C(=O)OC)C1)Nc1cc(OC)c([C@@H]5[C@H]6O[C@H]6[C@@]6(CC)CC(C(=O)OC)=C7Nc8cc(OC)ccc8[C@@]78CCN5[C@@H]68)cc14)[C@@H]32 ?
A: inactive

Q: // return assay outcome for CCCCCCCCc1ccc(C(=O)Nc2ccc(C)cc2C(=O)O)cc1
A: inactive

----------
- System: KM12 colon
- measurement-notes: NCI-60 one-dose screen, 48 h
- protocol-conditions: 10 µM unless noted
The panel holds about 83,000 compounds, 20% with a hit somewhere; the sample as a whole holds those more often. The source made the active and inactive calls. The calls were made as follows: active = growth percent below 10; inactive = the rest.
Outcome (select one): active, inactive

{"columns": ["compound", "label"],
 "data": [
  ["O=C1Nc2ccccc2/C1=C\\c1ccc(OCC(=O)c2ccc(Br)cc2)cc1", "inactive"],
  ["N#Cc1cc(-c2ccc3ncnc(N4CCc5cc(F)c(Cl)cc54)c3c2)cnc1N", "inactive"],
  ["O=C(CSc1nnc(-c2ccc(-c3nc4ccc(Cl)cc4[nH]3)cc2)o1)Nc1ccccc1", "inactive"]
]}

Q: # lookup: test call for CCCSc1nnc(-c2sc3nc4ccccc4n3c2C)o1
A: inactive

Q: Outcome logged for NS(=O)(=O)c1ccc(N2N=C(c3ccc(NC(=O)Nc4ccccc4)cc3)CC2c2ccc(Br)cc2)cc1 (stereo not given) in this assay:
A: active

----------
- Test system: EKVX NSCLC
- measurement-notes: NCI-60 one-dose screen, 48 h
- protocol-conditions: 10 µM unless noted
This is part of a sample that, as a whole, favours compounds with a hit. Of some 83,000 tested, about 20% had one in any assay. The source made the active and inactive calls. How the source made its calls: active means growth percent below 10; inactive means the rest.
Form entry, call: pick from Y (active), N (inactive)

Q: Could you check what this test reported for O=C(Cc1c(-c2ccccc2[N+](=O)[O-])n(-c2ncnc3c2c(-c2ccccc2)c(-c2ccccc2)n3Cc2ccccc2)[nH]c1=O)c1ccc(Cl)c(Cl)c1 ?
A: N

Q: Record request — test call for O=CNc1cccc(-n2cnc3cc(-c4ccc(O)cc4)ccc32)c1
A: N

Q: Please state the recorded outcome for this compound: COc1ccc2[nH]cc(-c3cc4nc(-c5cn(C)c6ncccc56)cc(N)n4n3)c2c1
A: N

Q: State the result this test recorded for COc1ccc(C(=O)c2c(N)c(C#N)cn2-c2ccc([N+](=O)[O-])cc2)cc1 .
A: N

Q: What classification did COc1ccc(/C=C/c2nc3ccccc3n3c(-c4cccc([N+](=O)[O-])c4)nnc23)cc1 end up with in this test?
A: Y

Q: // return assay outcome for CCCCCCCCc1cccc(CC(=O)Nc2ccc(C)cc2C(=O)O)c1
A: N

----------
- System: NCI-H322M lung
- measurement-notes: NCI-60 one-dose screen, 48 h (100 = growth as untreated, 0 = no growth, -100 = all killed)
- protocol-conditions: 10 µM unless noted
This is part of a sample that, as a whole, favours compounds with a hit. Of some 83,000 tested, about 20% had one in any assay.
Rule: growth below 50% gives true (1), anything at or above gives false (0).

Some entries whose results are on file:
{"columns": ["molecule", "label"],
 "data": [
  ["COc1ccc(SC2c3cc(OC)ccc3Oc3nc(N)c(C#N)c(N)c32)cc1 (centres undefined)", "false (0)"],
  ["CCOc1ccccc1[C@H]1C(C(=O)c2ccc(Cl)cc2)C2(N[C@@H]1c1ccccc1)C(=O)Nc1ccc(Br)cc12 (some centres undefined)", "true (1)"],
  ["COc1cc(CNC(=O)C[C@H](C)CCC=C(C)C)ccc1OCc1cn(-c2ccccc2F)nn1", "false (0)"],
  ["CC(C)CN1C(=O)/C(=C\\C(=O)c2cc3ccccc3oc2=O)c2ccccc21", "false (0)"],
  ["CCCCCCCOc1ccc(S(=O)(=O)Nc2ccc(C)c(F)c2C(=O)O)cc1", "false (0)"]
]}

Q: Strictly below 50%: is that where growth of Cc1ccc(C(=O)Nc2cc(-n3ccnc3C)cc(C(F)(F)F)c2)cc1C#Cc1cnc2cccnn12 sits?
A: true (1)

Q: For O=C(NN1C(=O)/C(=C/C=C/c2ccc([N+](=O)[O-])o2)SC1=S)c1ccncc1 , is the recorded growth below the cut-off of 50%?
A: true (1)

Q: Given Cc1ccc2c(c1)/C(=C/C(=O)c1cc3ccccc3oc1=O)C(=O)N2 , is recorded growth strictly lower than 50%?
A: false (0)
